- TARGET_DESC: 5-HT2A (Homo sapiens, UniProt P28223)
- Sequence (P28223 whole entry): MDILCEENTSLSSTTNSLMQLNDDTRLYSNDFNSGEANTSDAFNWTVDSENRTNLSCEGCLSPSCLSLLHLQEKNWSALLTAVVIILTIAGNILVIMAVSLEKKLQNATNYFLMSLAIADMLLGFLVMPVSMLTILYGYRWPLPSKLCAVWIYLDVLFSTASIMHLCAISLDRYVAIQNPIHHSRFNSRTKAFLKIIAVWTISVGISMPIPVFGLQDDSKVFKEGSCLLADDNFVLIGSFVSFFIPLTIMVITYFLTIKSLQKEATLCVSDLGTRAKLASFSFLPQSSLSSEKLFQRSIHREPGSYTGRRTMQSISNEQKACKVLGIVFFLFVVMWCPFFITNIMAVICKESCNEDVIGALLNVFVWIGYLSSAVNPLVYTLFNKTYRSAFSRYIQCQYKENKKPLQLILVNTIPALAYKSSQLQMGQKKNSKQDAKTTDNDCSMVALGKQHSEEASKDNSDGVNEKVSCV
- TEST_NAME: Serotonin 5-HT2A in vitro cellular IPOne antagonism assay
- Type: cell-based
- Parameters: host or cells: CHO-K1
- CONDITION_INFO: CHO-K1 cells, IPOne HTRF, reference agonist a-Me-5HT
pIC50: −log10 of the molar value.
Please respond with reported pIC50 for every item in the list.

{"COMPOUND": "CCN1CCC(n2ccc3c(F)c(F)ccc32)C1 (stereo not shown) [Compound 17]", "pIC50": "5.00 to 6.00"}
{"COMPOUND": "Cc1cn(C2CCN(C)CC2)c2ccc(F)cc12 [Compound 9]", "pIC50": "6.00 to 7.00"}
{"COMPOUND": "CN1CC(n2ccc3ccc(F)cc32)C1 [Compound 33]", "pIC50": "6.00 to 7.00"}

# input for lookup
Request body: readout pIC50, system 5-HT2A (Homo sapiens, UniProt P28223), query Cc1cn(C2CNC2)c2ccc(F)cc12 [Compound 1] . Return the value.
5.00 to 6.00

----------
- TARGET_DESC: 5-HT2A (Homo sapiens, UniProt P28223)
- TEST_NAME: Serotonin 5-HT2A in vitro radioligand binding competition assay ([3H]-DOI)
- Set-up: purchased Epics Therapeutics S. A. (Belgium) FAST-0505B
- CONDITION_INFO: [3H]-DOI competition, membrane extracts
- Experimental: Serotonin 5-HT2A In Vitro Radioligand Binding Competition Assay. The 5-HT2A radioligand binding competition assay was performed at Epics Therapeutics S. A. (Belgium, FAST-0505B) using conventional methods. […] Nonspecific binding was determined by co-incubation with 200-fold excess of cold competitor. […] The plates were incubated 15 min on an orbital shaker and then counted with a TopCount™ for 1 min/well.
pIC50: −log10 of the molar value.
RECORDED_ENDPOINT: pIC50

Examples with their reported pIC50 follow.
{"MOLECULE": "N#Cc1ccc2c(ccn2C2CNC2)c1", "pIC50": "< 5.00"}
{"MOLECULE": "Cc1ccc2c(ccn2C2CN(C)C2)c1", "pIC50": "5.00 to 6.00"}
{"MOLECULE": "Fc1cccc2ccn(C3CNC3)c12", "pIC50": "5.00 to 6.00"}
{"MOLECULE": "COCCN1CCC(n2ccc3c(F)c(F)ccc32)C1 (stereo not drawn)", "pIC50": "5.00 to 6.00"}
{"MOLECULE": "Cc1cn(C2CNC2)c2ccc(F)cc12", "pIC50": "6.00 to 7.00"}

# input for lookup
Request body: readout pIC50, system 5-HT2A (Homo sapiens, UniProt P28223), query `CN1CC(n2ccc3c(F)c(F)ccc32)C1` . Return the value.
6.00 to 7.00

----------
- TARGET_DESC: 5-HT2A (Homo sapiens, UniProt P28223)
- TEST_NAME: Serotonin 5-HT2A in vitro radioligand binding competition assay ([3H]-DOI)
- Set-up: purchased Epics Therapeutics S. A. (Belgium) FAST-0505B
- CONDITION_INFO: [3H]-DOI competition, membrane extracts
pIC50: −log10 of the molar value.
RECORDED_ENDPOINT: pIC50

Examples with their reported pIC50 follow.
{"MOLECULE": "COc1ccc2c(ccn2C2CN(C)C2)c1", "pIC50": "< 5.00"}
{"MOLECULE": "Cc1cn(C2CCN(C(C)C)C2)c2ccc(F)cc12 (stereo not shown)", "pIC50": "5.00 to 6.00"}
{"MOLECULE": "COc1ccc2c(ccn2C2CNC2)c1", "pIC50": "< 5.00"}

# input for lookup
Consider the molecule CCN1CCC(n2cc(C)c3cc(F)ccc32)C1 (stereo not shown) and give its measured pIC50.
5.00 to 6.00
